Below: a set of entries, each annotated with reported growth.
# System: MDA-MB-231 breast
# ASSAY_DETAILS: NCI-60 one-dose screen, 48 h (100 = growth as untreated, 0 = no growth, -100 = all killed)
# EXPERIMENTAL_PARAMETERS: 10 µM unless noted
Compounds without any hit were thinned out: in the full panel of roughly 83,000, 20% have a hit.
Numbers only; they are read as %.

Answered cases to consult:
Cn1cc(-c2cc3nc(-c4cn(C)c5ncccc45)cc(N)n3n2)c2ccccc21 | -19.9
O=C(CN1C(=O)/C(=C/c2ccccc2Cl)SC1=S)N1CCOCC1 | 94.3
CC(=O)OC[C@@]1(C)C2CC[C@]3(C)C(CC=C4C5CC(C)(C)CC[C@]5(C(=O)Nc5cccc(C)c5)CC[C@]43C)[C@@]2(C)C[C@@H](OC(C)=O)[C@@H]1OC(C)=O (stereo partly drawn) | 67.7
O=C(COc1ccc(NC(=O)Nc2ccc(Cl)c(Cl)c2)cc1)N=Nc1c(O)[nH]c2ccc(Br)cc12 | -59.3
CCCCCCCCOc1cccc(S(=O)(=O)Nc2ccc(C)cc2C(=O)O)c1 | 105
COc1ccc(NC(=O)Cn2c(O)c(N=Nc3ccc(S(N)(=O)=O)cc3)c3ccccc32)cc1 | -22.1
COc1ccc(C(=O)/C=C/c2ccccc2Cl)cc1S(N)(=O)=O | 91.9

Attention now shifts to the item below.
Recorded growth of `COC(=O)C[C@](O)(CCCC(C)(C)O)C(=O)O[C@H]1C(OC)=C[C@@]23CCCN2CCc2cc4c(cc2[C@@H]13)OCO4` , please.
-20.4
